B1: FAM164C (parent)
chain: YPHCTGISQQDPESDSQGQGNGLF

# Variants of: B1
# PROCEDURE TEXT: protein stability index of a GFP-peptide fusion (GPS, HEK-293T) (PSI 1-6); higher = more stable;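 also: lentivirally expressed fusions sorted by FACS into six bins by GFP to DsRed ratio, PSI derived from sequencing read proportions per bin multiplied by bin number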
# RUN CONDITIONS: c terminus: a fixed tail appended
PARAMETER: protein stability index
Give bare numbers.

# MUTATION ID, protein stability index
rows = [
    ("G6E", 4.46),
]

Quick one: give me protein stability index for each item below, same order please.
1. P12T
2. Q19M
3. G20M

3.74
3.22
3.9

List the reported protein stability index of each variant below.
1. C4W
2. C4H
3. C4T
4. Q9N
5. Q19C
6. Q17F
7. G18D
8. N21P

1. 2.75
2. 4.24
3. 4.32
4. 3.5
5. 3.24
6. 2.81
7. 3.67
8. 3.99

Below is a list of variants. For each, state its recorded protein stability index.
1. D15P
2. S14D
3. S8A
4. C4V
5. I7E
6. S16T

3.46
4.2
3.51
4.07
4.68
3.73

For each of the variants below, note its protein stability index.
1. L23P
2. G6W

[4.48, 2.87]

Okay, here is my list. What is protein stability index for each of these?
1. D15I
2. L23K

1. 2.9
2. 4.76
